Attribute: pKd
Biological target: T1, PCPE-1 (Procollagen C-proteinase enhancer-1) glycoprotein, human (human, UniProt Q15113 26-449)
T1 construct: mature; Secreted recombinant protein; also called purified human PCPE-1
T1 sequence (looked up): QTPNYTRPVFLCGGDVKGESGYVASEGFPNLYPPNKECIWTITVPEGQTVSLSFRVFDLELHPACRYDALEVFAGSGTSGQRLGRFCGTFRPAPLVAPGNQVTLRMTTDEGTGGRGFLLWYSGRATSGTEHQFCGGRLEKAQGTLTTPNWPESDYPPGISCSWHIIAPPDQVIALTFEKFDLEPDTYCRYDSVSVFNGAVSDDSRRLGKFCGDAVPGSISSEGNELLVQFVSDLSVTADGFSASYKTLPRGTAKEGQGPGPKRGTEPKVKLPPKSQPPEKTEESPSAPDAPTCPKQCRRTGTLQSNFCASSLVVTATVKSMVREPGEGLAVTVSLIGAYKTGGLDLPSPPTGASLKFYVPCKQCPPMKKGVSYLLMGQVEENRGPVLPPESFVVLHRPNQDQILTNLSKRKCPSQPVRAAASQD
Experiment: SPR, VHH injected on immobilized PCPE-1
The read-out pKd is expressed as -log10 of concentration in moles per litre.

VHH-I11 (VHH, Llama nanobody, pHEN6 vector, pelB signal, produced in E. coli periplasm; also called nanobody I11; not shown: C-terminal 6-His tag) VHH: QVQLVESGGGTVQAGGSLRLSCTASGRGRNAMGWYRQVPGGKRELVASINRGGTTDYTDSVKDRFTISRDSAKNTVYLQMDSLQPEDTAVYYCNAESTVIPGHIYDYWGRGTQVTVSS ... 6.79

Here's the next entry for you.
Exercise: I'd like to know its pKd. The binder in question is VHH-I2 (VHH, Llama nanobody, pHEN6 vector, pelB signal, produced in E. coli periplasm; also called nanobody I2; not shown: C-terminal 6-His tag) VHH: QVQLVESGGGWVQPGGSLRLSCAASGITFSTKTMGWYRQRPGKRREWIGSISPTGFTNYADAVKGRVTISRDNGENTVYLQMNSLKPEDTAVYFCNGVPPVIIDGQSVAYWGQGTQVTVSS
Key: 6.81
